- System: IGROV-1
- Protocol: NCI tumour cell line growth inhibition, 48 h
Activity calls are given as the source filed them. Cut-off read from the data, not from the text of the source: active = GI50 up to about 1.1 µM and inactive = higher.
Outcomes: y (active), n (inactive)

>>> class_label("O=C1C=Cc2c(Br)sc(Br)c21")
"n"
>>> class_label("CCOC(=O)c1c(N)sc2c1C(C(=O)OCC)CCC2 (centres undefined)")
"n"
>>> class_label("Cc1cccc(NS(=O)(=O)c2ccc3c(c2)OCCOCCOCCOCCO3)c1")
"n"
>>> class_label("O=C1c2cccc3cc4ccccc4c(c23)C(=O)N1CCCNCCNCCCN1C(=O)c2cccc3cc4ccccc4c(c23)C1=O")
"y"
>>> class_label("CCOc1ccc(/C=C2/C(=O)N=C(N)N=C2N)cc1OCC")
"n"
>>> class_label("CCOC(=O)c1cc(C2CCN(Cc3ccccc3)C2=S)c(C(=O)C=[N+]=[N-])[nH]1 (centres undefined)")
"n"
>>> class_label("COc1cc(CNCc2cc(OC)c(OC)c(OC)c2)cc(OC)c1OC")
"n"
>>> class_label("O=C1CSC(c2c[nH]c3ccccc23)N1c1ccc(Cl)cc1Cl (centres undefined)")
"n"
>>> class_label("C=CCNC(=S)NNC(=O)c1c(C)nc2sccn12")
"n"
>>> class_label("CCOC(=O)CCC(NC(=O)OCc1ccccc1)C(=O)NC(CCC(=O)OCC)C(=O)NC(CCC(=O)OCC)C(=O)NC(CCC(=O)OCC)C(=O)NC(CCC(=O)OCC)C(=O)OCC (centres undefined)")
"n"
>>> class_label("Nc1cnc(Nc2cccc3ccccc23)o1")
"n"
>>> class_label("CSc1n[nH]c2[nH]nc(C)c12")
"n"
>>> class_label("CCOC(C/N=c1/nc(N(C)C)ss1)OCC")
"n"
>>> class_label("COc1cccc(Nc2nc(N)nc(N)c2N=O)c1")
"n"
